# reported growth inhibition; entries follow
Experiment: NCI Yeast Anticancer Drug Screen. Data for the wt2 strain (AID 169);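 further: 0% = growth of vehicle-treated yeast cultures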
Settings: S. cerevisiae wt2 strain growth inhibition; at 100.0 µM; hits give high values
Protocol: Growth inhibition of yeast strains with defined genetic alterations is measured as a screen for potential anti-cancer activity. Selected strains with alterations in DNA damage repair or cell cycle control were exposed to compounds and growth inhibition was measured relative to vehicle treated controls. The strain used in this assay is wt2
This is part of a sample that, as a whole, favours compounds with a hit. Of some 79,000 tested, about 15% had one in any assay.
State just the number; it will be interpreted in %.

Some entries whose results are on file:
CN(NC(=O)/C(=C/c1ccc(O)cc1)NC(=O)c1ccccc1)c1ccnc2cc(Cl)ccc12 70
CC[C@@]1(OC(=O)CCC(=O)O)C(=O)OCc2c1cc1n(c2=O)Cc2cc3ccccc3nc2-1 87
CN(C)c1ccc(/C=C/c2ccnc3ccccc23)cc1N 52
O=C1CSC(=S)N1Cc1ccc(Cl)cc1Cl 99

Would you kindly look at the next entry?
Please list growth inhibition recorded for the compound Cc1cc(Cl)ccc1NC(=O)/C(Cl)=C1/Sc2ccccc2NC1=O 2

* * *

Experiment: NCI Yeast Anticancer Drug Screen. Data for the rad52 strain (AID 147);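 further: 0% = growth of vehicle-treated control cultures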
Details: S. cerevisiae rad52 mutant growth inhibition; at 11.0 µM; hits give high values
This is part of a sample that, as a whole, favours compounds with a hit. Of some 79,000 tested, about 15% had one in any assay.
Quantity Measured: growth inhibition (%)
State just the number; it will be interpreted in %.

Some entries whose results are on file:
Compound	Unit Of Measure	growth inhibition
N#CSC1CCCCNC1=O (stereo not given)	%	32
COc1ccc(N=N/C(=N\NC(=O)c2cc(Br)ccc2O)c2ccc(N(CCC#N)CCC#N)cc2OC)cc1	%	44
NNC(=S)Nc1cccc2ccccc12	%	-29
O=NN(CCCl)C(=O)NC1CCCCC1	%	33
COC(=O)/C=C1/OC(c2ccc(Br)cc2)=C(Br)C1=O	%	-18

Please list growth inhibition recorded for the compound COc1ccc(/C(C#N)=C/c2ccc(OC)c(OC)c2)cc1 -1

Please list growth inhibition recorded for the compound Cc1ccc(S(=O)(=O)N/N=C/C2(c3ccccc3)c3ccccc3-c3ccccc32)cc1 79

Please list growth inhibition recorded for the compound Cc1ccc(Nc2n[nH]c(=S)s2)cc1 6

Please list growth inhibition recorded for the compound COc1ccc(/C=C(\NC(=O)c2ccccc2)C(=O)NN(C)c2ccnc3cc(Cl)ccc23)cc1OC 12

Please list growth inhibition recorded for the compound O=C(Nc1cccc(C(F)(F)F)c1)Oc1ccc(Cl)cc1C(=O)c1ccccc1 80

Please list growth inhibition recorded for the compound CCCCOC(=O)CSSCC(=O)OCCCC 28

Please list growth inhibition recorded for the compound Cc1ccc(I)cc1N=C=S 22

Please list growth inhibition recorded for the compound CCN(CC)N=Nc1c(C(N)=O)n[nH]c1C 8

Please list growth inhibition recorded for the compound CCOC(=O)[C@]1(Br)CC[C@@]1(Br)C(=O)OCC 31

Please list growth inhibition recorded for the compound OCCN(CCO)c1ccc2c(c1)Cc1ccccc1-2 3

Please list growth inhibition recorded for the compound O=S1(=O)c2ccccc2N=C(c2ccccc2Cl)CC1c1ccc(F)cc1 (stereo not given) 28

Please list growth inhibition recorded for the compound S=c1[nH]c2c(Cl)c(Cl)c(Cl)c(Cl)c2[nH]1 45

Please list growth inhibition recorded for the compound S=P(N1CC1)(N1CC1)N1CC1 3

Please list growth inhibition recorded for the compound Nc1ccc2c(c1)sc1ccccc12 3

Please list growth inhibition recorded for the compound O=C(NCCCCCN1CCC2(CCCCC2)CC1)C(C1CCCCC1)C1CCCCC1 65

Please list growth inhibition recorded for the compound COc1ccc2c(c1)[nH]c1c(/C=C/c3ccccc3)nccc12 -2

Please list growth inhibition recorded for the compound O=C(NC(=S)Nc1ccccn1)c1ccccc1 -35

Please list growth inhibition recorded for the compound CN(C)CC1CCCc2ccccc2C1=O (stereo not given) -41

Please list growth inhibition recorded for the compound COc1cc2c(cc1C[N+](C)(C)CSc1ccccc1)-c1ccccc1CC2 79

Please list growth inhibition recorded for the compound O=C(/C=C/c1cccc2ccccc12)c1ccc(Cl)cc1 7

* * *

# reported growth inhibition; entries follow
Assay: NCI Yeast Anticancer Drug Screen. Data for the rad50EPP+ strain (AID 151);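 further: 0% = growth of vehicle-treated control cultures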
Conditions: S. cerevisiae rad50 mutant strain, at 11.0 µM, hits give high values
This is part of a sample that, as a whole, favours compounds with a hit. Of some 79,000 tested, about 15% had one in any assay.
State just the number; it will be interpreted in %.

Molecule	growth inhibition / %
OCCN(CCO)c1ccc2c(c1)Cc1ccccc1-2	17

Please list growth inhibition recorded for the molecule COc1cc(NCc2ccc3nc(N)nc(N)c3c2C)cc(OC)c1OC -4

Please list growth inhibition recorded for the molecule CCOC(=O)C1=C(C)NC(C)=C(C(=O)OCC)C1c1ccc(C)cc1 -25

* * *

Experiment: NCI Yeast Anticancer Drug Screen. Data for the mec2-1 strain (AID 157)
Conditions: S. cerevisiae mec2-1 strain, at 3.7 µM
The panel holds about 79,000 compounds, 15% with a hit somewhere; the sample as a whole holds those more often. Active and inactive are the calls of the source. No stated cut-off is given here; in the data, active means growth inhibition above about 70%; inactive means the rest.
Please answer using one outcome listed in active, inactive

Solved entries:
Molecule	Label
CCC(c1ccc(O)cc1)C(CC)c1ccc(OCCN)cc1 (configuration not stated)	inactive
CCCCCCCCCCCCCCCCNC(=O)/C(=C\c1ccc(Cl)c(Cl)c1)NC(=O)c1ccccc1	inactive
COc1ccc(/C=C(\NC(=O)c2ccccc2)C(=O)NN(C)c2ccnc3cc(Cl)ccc23)cc1OC	inactive
CN=C(N)N/N=C(\C)c1ccc2oc3ccc(/C(C)=N/NC(N)=NC)cc3c2c1	inactive
CSc1s[s+]c(SC)c1-c1ccccc1	inactive
O=C1C(Cl)=C(Cl)C(Cl)(Cl)C(Cl)C1(Cl)Cl (configuration not stated)	inactive
CCCCCCSc1nc(COC(=O)NC)c(COC(=O)NC)n1C	inactive
Nc1ccc2c(c1)sc1ccccc12	inactive

Record request — test call for CC(=O)N1C(=O)/C(=C\C(=O)c2ccc(Cl)cc2)c2ccccc21 inactive

Record request — test call for CCOP1(=O)C=C(Sc2ccc([N+](=O)[O-])cc2[N+](=O)[O-])C(C)(C)O1 (configuration not stated) inactive

Record request — test call for O=C1CSC(=S)N1Cc1ccc(Cl)cc1Cl inactive

Record request — test call for CCC(NC(C)c1ccccc1)C(=O)c1ccc(OCc2ccccc2)c(OCc2ccccc2)c1 (configuration not stated) inactive

Record request — test call for O=C(N/N=C\c1c(Cl)cccc1Cl)N/N=C/c1c(Cl)cccc1Cl inactive

Record request — test call for CCCCC(=O)c1c(O)nc2sccn2c1=O inactive

Record request — test call for Cn1c2nc3ccccc3c-2nc2ccccc21 inactive

Record request — test call for O=C(Nc1cccc(C(F)(F)F)c1)Oc1ccc(Cl)cc1C(=O)c1ccccc1 inactive

Record request — test call for CC1=CCCC2C1(C)CCC(C)C2(C)Cc1cc(O)ccc1O (configuration not stated) inactive

Record request — test call for O=S1(=O)c2ccccc2N=C(c2ccccc2Cl)CC1c1ccc(F)cc1 (configuration not stated) inactive

Record request — test call for Oc1ccc(Br)cc1C=NC1CCCCC1 inactive

Record request — test call for COc1ccc(/C=C2\SC(=S)N(C=C3C(=O)NC(=S)NC3=O)C2=O)cc1OC inactive

Record request — test call for Cn1ncc2cc3c(Nc4ccc(Cl)cc4)cccc3nc21 inactive

Record request — test call for COc1cc(CNc2ccc(C(C)C)cc2)cc(OC)c1OC inactive

Record request — test call for Cc1cc(Cl)ccc1NC(=O)/C(Cl)=C1/Sc2ccccc2NC1=O inactive

Record request — test call for O=C(/C=C/c1cccc(Br)c1)c1ccc(Cl)cc1 inactive

Record request — test call for OCCN(CCO)c1ccc2c(c1)Cc1ccccc1-2 inactive

Record request — test call for COCCCN(Cc1cc(OC)c(OC)c(OC)c1)C(=S)Nc1cccc(Cl)c1 inactive

Record request — test call for NNC(=S)Nc1cccc(Cl)c1 inactive

* * *

Assay: NCI Yeast Anticancer Drug Screen. Data for the rad50 strain (AID 155);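 further: 0% = growth of vehicle-only cultures of the same strain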
Details: S. cerevisiae rad50 strain growth inhibition; at 3.7 µM; hits give high values
Compounds without any hit were thinned out: in the full panel of roughly 79,000, 15% have a hit.
# reported growth inhibition; entries follow
State just the number; it will be interpreted in %.

Compound	Quantity Measured	Experimental Value
C=C(CCCO)[C@@H]1CC[C@@](C)(O)[C@H]1C	growth inhibition	-7
Nc1ccc(S(=O)(=O)Nc2ccc(Nc3c4ccccc4nc4ccccc34)cc2)cc1	growth inhibition	66
CC(=O)C1=C(C)O/C(=C/c2cccc(Cl)c2)C1=O	growth inhibition	19
COc1ccc(N2CN(C)CSC2=S)cc1	growth inhibition	3

Please list growth inhibition recorded for the compound O=NN(CCCl)C(=O)NCCCl 0

Please list growth inhibition recorded for the compound COC(=O)c1ccc2c(c1)Cc1ccccc1-2 10

Please list growth inhibition recorded for the compound CCC(C)(c1ccc(O)c(C)c1)c1ccc(O)c(C)c1 -28
